From: ChEMBL document CHEMBL1157295

- System: Staphylococcus aureus
- measurementDescription: Antimicrobial activity against TetK multidrug efflux pump possessing Staphylococcus aureus XU-212 by standard microdilution method
- Format: functional
observable: MIC (µg/mL)
Report as a plain number; the unit µg/mL is understood.

Sample answers from the record:
Sure, the documented MIC for CCCCC[C@H]1CCCCCCCCCC(=O)O[C@H]2[C@H](O)[C@@H](CO)O[C@@H](O[C@H]3[C@H](O1)O[C@H](C)[C@H](O)[C@@H]3O)[C@@H]2O[C@@H]1O[C@@H](C)[C@H](OC(=O)[C@H](C)[C@@H](C)O)[C@@H](O[C@@H]2O[C@@H](C)[C@H](O)[C@@H](O)[C@H]2O)[C@H]1OC(=O)[C@@H](C)CC [TRICOLORIN C] is 16

Data point: CCCCC[C@H]1CCCCCCCCCC(=O)O[C@H]2[C@H](O)[C@@H](CO)O[C@@H](O[C@H]3[C@H](O1)O[C@H](C)[C@H](O)[C@@H]3O)[C@@H]2O[C@@H]1O[C@@H](C)[C@H](OC(=O)[C@@H](C)CC)[C@@H](O[C@@H]2O[C@@H](C)[C@H](O)[C@@H](O)[C@H]2O)[C@H]1OC(=O)[C@@H](C)CC [TRICOLORIN A] ; MIC = 8

Next:
According to the records, this molecule C/C=C(\C)C(=O)O[C@H]1[C@H](O)[C@@H](O)[C@H](O[C@@H]2[C@H]3OC(=O)CCCCCCCCC[C@H](CCCCC)O[C@@H]4O[C@H](C)[C@@H](O)[C@H](O)[C@H]4O[C@@H]4O[C@H](COC(=O)[C@@H](C)[C@H](C)O)[C@@H](O)[C@H](O)[C@H]4O[C@H](O[C@H]2C)[C@@H]3OC(=O)C(C)C)O[C@@H]1C [ORIZABIN XIII] displays MIC of 32
